# Tested on: NRF2
# method-summary: Reporter assay: NRF2 activating action in HCE-T/ARE-Luc cells (ARE luciferase reporter gene assay)
# Format: cell-based, human
# test-settings: Homo sapiens; Test Example 1-2; HCE-T/ARE-Luc cells, 24 hours; N=3
value-kind: EC50 (nM)
Respond numerically; units are nM and should not be typed.

Observed EC50, NRF2, CC[C@@H]1CN(Cc2cc(C(c3cc(C)c(C(C)=O)s3)C(C)C(=O)O)ccc2C)S(=O)(=O)c2ccccc2O1 (stereo partly shown) : 9

###

# System: HCE-T cells
# method-summary: Cell viability test in HCE-T cells (Cell Counting Kit-8, 24 hours)
# Type: cell-based, human
# test-settings: mean, N=3
# Procedure: To confirm cell viability, HCE-T cells were seeded at 10000 cells per well in a 96-well polystyrene microplate (IWAKI). The cells were cultured in a CO2 incubator at 37° C. for 16 hours to allow the cells to adhere. The culture of the HCE-T cells was performed using DMEM/F12 medium containing 10 ng/mL hEGF, 5 μg/mL insulin, 5% FBS, and 40 μg/mL gentamicin. […]
Marks after values point to notes of the source that are not given here.
Cytotoxic concentration (concentration that does not affect cell viability) overview

> print(dat)
                                   compound     result
1  CC[C@@H]1CN(Cc2cc(C(c3ccc(C(C)=O)s3)[C@H](C)C(=O)O)ccc2C)S(=O)(=O)c2ccccc2O1 (stereo partly shown)  65.3** uM
2  CC[C@@H]1CN(Cc2cc(C(c3ccc(C(C)=O)s3)[C@H](C)C(=O)O)ccc2C)S(=O)(=O)c2cnccc2O1 (stereo partly shown)  181.1* uM
3  CC[C@@H]1CN(Cc2cc(C(c3ccc(C(C)=O)s3)C(C)(C)C(=O)O)ccc2C)S(=O)(=O)c2cnccc2O1 (single isomer, unassigned) [Compound D2]   14.7* uM

Then there is this compound:
The recorded Cytotoxic concentration (concentration that does not affect cell viability) for entry CC[C@@H]1CN(Cc2cc(C(c3cc(OC)c(C(C)=O)s3)[C@H](C)C(=O)O)ccc2C)S(=O)(=O)c2cnccc2O1 (stereo partly shown) equals 30.7* uM
